Origin of measurements: patent US20130267551A1

Molecular target: Histaminergic H2 (Homo sapiens)
Sequence (P25021 whole entry): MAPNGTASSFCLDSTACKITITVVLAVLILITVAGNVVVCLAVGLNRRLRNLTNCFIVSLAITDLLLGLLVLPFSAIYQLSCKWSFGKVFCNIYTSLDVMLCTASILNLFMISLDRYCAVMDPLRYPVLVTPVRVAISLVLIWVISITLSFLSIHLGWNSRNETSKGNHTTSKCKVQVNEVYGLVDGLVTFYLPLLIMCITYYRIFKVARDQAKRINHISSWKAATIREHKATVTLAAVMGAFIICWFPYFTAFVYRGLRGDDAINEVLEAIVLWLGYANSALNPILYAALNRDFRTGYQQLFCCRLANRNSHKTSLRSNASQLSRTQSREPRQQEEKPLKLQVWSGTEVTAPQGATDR
Assay: competitive radioligand binding, Histaminergic H2
Details: compound concentration of 1 μM
Where a name gives a salt, the structure may show the parent alone.
reported endpoint: radio-labelled ligand displacement, Histaminergic H2 (%)
Only the number, expressed in %, is required.

Query block: Which radio-labelled ligand displacement, Histaminergic H2 reading was recorded for the molecule Cc1cc2c3c(n(CC(O)c4ccccc4)c2s1)CCN(C)C3.Cl (stereo not drawn) [3.7(1)•HCl] ?
Result block: 57

Query block: Consider the molecule CN1CCc2c(c3cc(Cl)sc3n2CCCc2cccc(F)c2)C1 [3.12(6)•HCl] and give its measured radio-labelled ligand displacement, Histaminergic H2.
Result block: 91

Query block: Item Cc1ccc(C=CCn2c3c(c4cc(C)sc42)CN(C)CC3)cc1 [3.11(2)•HCl] has what recorded radio-labelled ligand displacement, Histaminergic H2?
Result block: 50

Query block: Endpoint output: radio-labelled ligand displacement, Histaminergic H2 of Cc1ccc(CCCn2c3c(c4c(Cl)csc42)CN(C)CC3)cc1 [3.12(5)•HCl] . Value?
Result block: 57

Query block: Which measured radio-labelled ligand displacement, Histaminergic H2 value corresponds to Cc1csc2c1c1c(n2CCCc2ccccc2)CCN(C)C1 [3.12(1)•HCl] ?
Result block: 99

Query block: Look up radio-labelled ligand displacement, Histaminergic H2: Cc1cc2c3c(n(CCc4ccc(Cl)cc4)c2s1)C(C)CN(C)C3 (stereo not drawn) [3.6(4)•HCl]
Result block: 63

----------
Molecular target: Serotoninergic 5-HT2B (Homo sapiens)
Sequence (P41595 whole entry): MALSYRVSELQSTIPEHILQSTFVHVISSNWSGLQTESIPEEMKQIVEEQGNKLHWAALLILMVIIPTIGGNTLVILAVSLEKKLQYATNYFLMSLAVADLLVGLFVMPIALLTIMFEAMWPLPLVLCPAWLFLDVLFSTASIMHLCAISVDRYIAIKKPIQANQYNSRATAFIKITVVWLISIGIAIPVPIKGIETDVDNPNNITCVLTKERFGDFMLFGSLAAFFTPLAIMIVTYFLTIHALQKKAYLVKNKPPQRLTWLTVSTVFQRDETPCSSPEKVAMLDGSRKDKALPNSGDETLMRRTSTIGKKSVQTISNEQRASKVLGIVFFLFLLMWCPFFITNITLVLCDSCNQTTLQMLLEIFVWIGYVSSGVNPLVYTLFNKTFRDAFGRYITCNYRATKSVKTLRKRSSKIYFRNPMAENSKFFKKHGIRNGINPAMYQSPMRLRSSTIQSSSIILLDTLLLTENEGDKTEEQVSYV
Assay: competitive radioligand binding, Serotoninergic 5-HT2B
Conditions: compound concentration of 1 μM; read-out: radio-labelled ligand displacement, Serotoninergic 5-HT2B
Counter-ions that a name gives are not always drawn.
reported endpoint: inhibition at 1 µM (%)
Quick note: give the figure in %, leave out the unit.

Query block: Recorded inhibition at 1 µM of CC1Cc2c(c3sc(Cl)cc3n2C#Cc2cccc(F)c2)C(C)N1C (stereo not shown) [2.10(3)•HCl] , please.
Result block: 39

Query block: Reported inhibition at 1 µM, molecule Cc1ccc(Cn2c3c(c4sc(Cl)cc42)C(C)N(C)C(C)C3)cn1 (stereo not shown) [2.5(4)•HCl] : ____
Result block: 78

Query block: Endpoint output: inhibition at 1 µM of Cc1cc2c(s1)c1c(n2-c2cccc(F)c2)CCN(C)C1 [2.4(3)•HCl] . Value?
Result block: 39

Query block: Entry under review: Cc1ccc(CCCn2c3c(c4scc(Cl)c42)CN(C)CC3)cn1 [2.12(5)•HCl] . Reported inhibition at 1 µM?
Result block: 95

----------
Assignment: determine reported inhibition at 1 µM for the given compounds.
Molecular target: Adrenergic α2A (Homo sapiens)
Sequence (P08913 whole entry): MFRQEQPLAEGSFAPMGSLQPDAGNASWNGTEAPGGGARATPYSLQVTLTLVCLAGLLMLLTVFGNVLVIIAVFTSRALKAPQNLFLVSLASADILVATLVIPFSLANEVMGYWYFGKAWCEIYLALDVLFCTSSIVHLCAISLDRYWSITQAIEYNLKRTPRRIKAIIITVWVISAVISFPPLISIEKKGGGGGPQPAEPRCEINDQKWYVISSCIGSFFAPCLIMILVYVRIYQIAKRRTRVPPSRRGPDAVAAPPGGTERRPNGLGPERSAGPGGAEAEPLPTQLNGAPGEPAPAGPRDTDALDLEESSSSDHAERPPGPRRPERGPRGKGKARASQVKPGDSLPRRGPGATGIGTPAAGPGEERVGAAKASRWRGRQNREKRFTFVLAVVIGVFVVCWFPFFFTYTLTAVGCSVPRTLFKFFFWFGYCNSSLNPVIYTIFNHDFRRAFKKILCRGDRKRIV
Assay: competitive radioligand binding, Adrenergic α2A
Settings: compound concentration of 1 μM; read-out: radio-labelled ligand displacement, Adrenergic α2A
Counter-ions that a name gives are not always drawn.

Query block: Using the record for Cc1cc2c(s1)c1c(n2-c2cccc(F)c2)CCN(C)C1 [2.4(3)•HCl] , report its inhibition at 1 µM.
Result block: 14%

Query block: What value of inhibition at 1 µM has been recorded for this entry: Cc1ccc(CCCn2c3c(c4scc(Cl)c42)CN(C)CC3)cn1 [2.12(5)•HCl]
Result block: 101%

Query block: Given the entry Cc1ccc(Cn2c3c(c4sc(Cl)cc42)C(C)N(C)C(C)C3)cn1 (stereo not shown) [2.5(4)•HCl] , report its measured inhibition at 1 µM.
Result block: 42%

Query block: Query: inhibition at 1 µM; subject: CC1Cc2c(c3sc(Cl)cc3n2C#Cc2cccc(F)c2)C(C)N1C (stereo not shown) [2.10(3)•HCl]
Result block: 17%

----------
What radio-labelled ligand displacement, Serotoninergic 5-HT6 was measured for each of the following?
Biological target: Serotoninergic 5-HT6 (Homo sapiens, UniProt P50406)
Sequence (P50406 whole entry): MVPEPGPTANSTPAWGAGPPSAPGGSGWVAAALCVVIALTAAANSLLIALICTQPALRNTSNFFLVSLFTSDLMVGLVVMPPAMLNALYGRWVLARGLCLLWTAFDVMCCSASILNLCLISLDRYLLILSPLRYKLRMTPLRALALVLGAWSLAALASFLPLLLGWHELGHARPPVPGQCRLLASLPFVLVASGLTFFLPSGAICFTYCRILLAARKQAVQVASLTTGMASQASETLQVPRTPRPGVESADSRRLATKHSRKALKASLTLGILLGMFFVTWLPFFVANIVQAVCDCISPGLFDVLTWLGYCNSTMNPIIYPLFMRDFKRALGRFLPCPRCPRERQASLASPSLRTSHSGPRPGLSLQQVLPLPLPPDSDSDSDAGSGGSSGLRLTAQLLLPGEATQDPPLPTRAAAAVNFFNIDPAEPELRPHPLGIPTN
Assay: competitive radioligand binding, Serotoninergic 5-HT6
Settings: compound concentration of 1 μM
Where a name gives a salt, the structure may show the parent alone.

Query block: Could you tell me which radio-labelled ligand displacement, Serotoninergic 5-HT6 is on file for Cc1ccc(C=CCn2c3c(c4cc(C)sc42)CN(C)CC3)cc1 [3.11(2)•HCl] ?
Result block: 95%

Query block: Fill in: radio-labelled ligand displacement, Serotoninergic 5-HT6 of Cc1cc2c3c(n(CC(O)c4ccccc4)c2s1)CCN(C)C3.Cl (stereo not drawn) [3.7(1)•HCl] is ___
Result block: 99%

Query block: Name the reported radio-labelled ligand displacement, Serotoninergic 5-HT6 value associated with the molecule CN1CCc2c(c3cc(Cl)sc3n2CCCc2cccc(F)c2)C1 [3.12(6)•HCl]
Result block: 84%

Query block: // returns reported radio-labelled ligand displacement, Serotoninergic 5-HT6 for input Cc1csc2c1c1c(n2CCCc2ccccc2)CCN(C)C1 [3.12(1)•HCl]
Result block: 101%

Query block: What measured radio-labelled ligand displacement, Serotoninergic 5-HT6 goes with Cc1cc2c3c(n(CCc4ccc(Cl)cc4)c2s1)C(C)CN(C)C3 (stereo not drawn) [3.6(4)•HCl] ?
Result block: 99%

Query block: Bench note: what radio-labelled ligand displacement, Serotoninergic 5-HT6 did Cc1ccc(CCCn2c3c(c4c(Cl)csc42)CN(C)CC3)cc1 [3.12(5)•HCl] show?
Result block: 99%

----------
Molecular target: Serotoninergic 5-HT7 (Homo sapiens, UniProt P34969)
Sequence (P34969 whole entry): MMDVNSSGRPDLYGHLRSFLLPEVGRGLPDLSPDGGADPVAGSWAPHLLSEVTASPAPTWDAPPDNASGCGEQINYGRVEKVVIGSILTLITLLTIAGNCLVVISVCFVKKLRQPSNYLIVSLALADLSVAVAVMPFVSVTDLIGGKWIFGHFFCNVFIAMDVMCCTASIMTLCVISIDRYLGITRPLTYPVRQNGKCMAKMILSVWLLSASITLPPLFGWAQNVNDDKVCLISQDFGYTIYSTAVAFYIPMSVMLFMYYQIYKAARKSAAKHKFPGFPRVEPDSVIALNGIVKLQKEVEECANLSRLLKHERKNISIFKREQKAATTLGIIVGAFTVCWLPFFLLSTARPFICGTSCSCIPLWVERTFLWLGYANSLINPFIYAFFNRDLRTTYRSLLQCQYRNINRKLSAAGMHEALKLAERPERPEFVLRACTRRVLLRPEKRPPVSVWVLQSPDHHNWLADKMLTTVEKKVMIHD
Assay: competitive radioligand binding, Serotoninergic 5-HT7
Details: compound concentration of 1 μM; read-out: radio-labelled ligand displacement, Serotoninergic 5-HT7
Counter-ions that a name gives are not always drawn.
reported endpoint: inhibition at 1 µM
The answer should read as a number with its unit following.

Query block: Quick one: inhibition at 1 µM of CC1Cc2c(c3sc(Cl)cc3n2C#Cc2cccc(F)c2)C(C)N1C (stereo not drawn) [2.10(3)•HCl] ?
Result block: 33%

Query block: I am curious: what inhibition at 1 µM value has been reported for Cc1ccc(Cn2c3c(c4sc(Cl)cc42)C(C)N(C)C(C)C3)cn1 (stereo not drawn) [2.5(4)•HCl] ?
Result block: 87%

Query block: Requested field: inhibition at 1 µM. Item: Cc1cc2c3c(n(Cc4ccccc4)c2s1)CC1CCC3N1C (stereo not drawn) [3.13(1)•HCl]
Result block: 79%

Query block: I would be grateful if you could share the reported inhibition at 1 µM for Cc1ccc(CCCn2c3c(c4scc(Cl)c42)CN(C)CC3)cn1 [2.12(5)•HCl] .
Result block: 99%

Query block: Form field: reported inhibition at 1 µM of Cc1cc2c(s1)c1c(n2Cc2ccccc2)CCN(C)C1.Cl [2.5(1)•HCl]
Result block: 92%

Query block: May I ask what inhibition at 1 µM has been recorded for Cc1cc2c3c(n(Cc4ccccc4)c2s1)CCN(C)C3.Cl [3.5(1)•HCl] ?
Result block: 95%

Query block: // inhibition at 1 µM lookup, key: Cc1cc2c(s1)c1c(n2CCc2ccccc2)CCN(C)C1.Cl [2.6(1)•HCl]
Result block: 98%

Query block: Need inhibition at 1 µM of Cc1cc2c3c(n(CCc4ccccc4)c2s1)CCN(C)C3.Cl [3.6(1)•HCl] , thanks.
Result block: 99%

Query block: Can you look up the measured inhibition at 1 µM of Cc1cc2c(s1)c1c(n2-c2cccc(F)c2)CCN(C)C1 [2.4(3)•HCl] for me?
Result block: 43%

----------
Target: Dopaminergic D2L (Homo sapiens, UniProt P14416)
Sequence (P14416 whole entry): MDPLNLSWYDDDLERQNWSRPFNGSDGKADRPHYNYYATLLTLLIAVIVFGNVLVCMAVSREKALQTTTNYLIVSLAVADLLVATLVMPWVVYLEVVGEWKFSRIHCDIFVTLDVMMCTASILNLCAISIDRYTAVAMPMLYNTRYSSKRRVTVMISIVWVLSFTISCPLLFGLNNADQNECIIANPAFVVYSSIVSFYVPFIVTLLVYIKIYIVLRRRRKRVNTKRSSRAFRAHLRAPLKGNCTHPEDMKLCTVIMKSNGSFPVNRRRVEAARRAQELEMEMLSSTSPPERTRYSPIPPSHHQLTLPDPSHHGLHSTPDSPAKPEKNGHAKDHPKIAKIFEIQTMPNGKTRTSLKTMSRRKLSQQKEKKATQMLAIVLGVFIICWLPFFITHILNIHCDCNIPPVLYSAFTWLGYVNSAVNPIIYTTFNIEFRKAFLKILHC
Assay: competitive radioligand binding, Dopaminergic D2L
Settings: compound concentration of 1 μM; read-out: radio-labelled ligand displacement, Dopaminergic D2L
Where a name gives a salt, the structure may show the parent alone.
reported endpoint: inhibition at 1 µM (%)
Dear colleague, please return just the value in %, with no unit written.

Query block: I am curious: what inhibition at 1 µM value has been reported for Cc1cc2c3c(n(CCc4ccccc4)c2s1)CCN(C)C3.Cl [3.6(1)•HCl] ?
Result block: 87

Query block: Consider the compound CC1Cc2c(c3sc(Cl)cc3n2C#Cc2cccc(F)c2)C(C)N1C (stereo not drawn) [2.10(3)•HCl] and give its measured inhibition at 1 µM.
Result block: 20

Query block: Item Cc1cc2c(s1)c1c(n2CCc2ccccc2)CCN(C)C1.Cl [2.6(1)•HCl] has what recorded inhibition at 1 µM?
Result block: 76

Query block: What inhibition at 1 µM value was documented for this compound, Cc1ccc(Cn2c3c(c4sc(Cl)cc42)C(C)N(C)C(C)C3)cn1 (stereo not drawn) [2.5(4)•HCl] ?
Result block: 11

Query block: Would you mind telling me what inhibition at 1 µM value was observed for Cc1cc2c3c(n(Cc4ccccc4)c2s1)CC1CCC3N1C (stereo not drawn) [3.13(1)•HCl] ?
Result block: 37

Query block: Which inhibition at 1 µM is reported for this compound? Cc1ccc(CCCn2c3c(c4scc(Cl)c42)CN(C)CC3)cn1 [2.12(5)•HCl]
Result block: 87

Query block: Bench note: what inhibition at 1 µM did Cc1cc2c(s1)c1c(n2Cc2ccccc2)CCN(C)C1.Cl [2.5(1)•HCl] show?
Result block: 8

Query block: Return reported inhibition at 1 µM; argument: Cc1cc2c(s1)c1c(n2-c2cccc(F)c2)CCN(C)C1 [2.4(3)•HCl]
Result block: 4

Query block: Which value of inhibition at 1 µM has been reported for Cc1cc2c3c(n(Cc4ccccc4)c2s1)CCN(C)C3.Cl [3.5(1)•HCl] in the records?
Result block: 14
